# PROTOCOL SUMMARY: MTT cytotoxicity assay, NHDF
# Format: cell-based
# RUN PARAMETERS: human, normal human dermal fibroblasts (NHDF)
EXPERIMENTAL READOUT: IC50 at 24 h (µM)
I only need the number, in µM, no unit after it.

Return value of IC50 at 24 h for input COc1cccc2c1C(=O)c1c(O)c3c(c(O)c1C2=O)C[C@@](O)(C(=O)CO)C[C@@H]3O[C@H]1C[C@H](N)[C@H](O)[C@H](C)O1 [Doxorubicin, reference compound] , no commentary.
5
